Recorded inhibition at 1.3 µM values for a group of compounds are listed next.
- System: Blood
- experimental.details: Anti-platelet aggregation activity in rabbit venous blood assessed as inhibition of ADP-induced aggregation at 1.3 uM pre-treated for 2 mins followed by ADP addition by Born turbidimetric method relative to control
- Assay type: functional
- condition.context: Oryctolagus cuniculus
observed.property: inhibition at 1.3 µM (%)

INSERT INTO assay_data (compound, test_system, observed_property, unit_text, measured_value) VALUES
  ('COc1ccc(S(=O)(=O)N2CCN(C(C)C)CC2)cc1S(=O)(=O)N1CCN(C(C)C)CC1', 'Blood', 'inhibition at 1.3 µM', '%', 28.4),
  ('CCOc1ccc(S(=O)(=O)N2CCN(C)CC2)cc1S(=O)(=O)N1CCN(C)CC1', 'Blood', 'inhibition at 1.3 µM', '%', 24.5),
  ('CCOc1ccc(S(=O)(=O)N2CCN(c3ccc(C)cc3)CC2)cc1S(=O)(=O)N1CCN(c2ccc(C)cc2)CC1', 'Blood', 'inhibition at 1.3 µM', '%', 43.6),
  ('COc1ccc(S(=O)(=O)N2CCN(c3ccccc3C)CC2)cc1S(=O)(=O)N1CCN(c2ccccc2C)CC1', 'Blood', 'inhibition at 1.3 µM', '%', 38.9),
  ('CCOc1ccc(S(=O)(=O)N2CCN(c3ccccc3C)CC2)cc1S(=O)(=O)N1CCN(c2ccccc2C)CC1', 'Blood', 'inhibition at 1.3 µM', '%', 28.9),
  ('COc1ccc(S(=O)(=O)N2CCN(c3ccccc3F)CC2)cc1S(=O)(=O)N1CCN(c2ccccc2F)CC1', 'Blood', 'inhibition at 1.3 µM', '%', 28),
  ('COc1ccc(S(=O)(=O)N2CCN(c3ccc(C)cc3)CC2)cc1S(=O)(=O)N1CCN(c2ccc(C)cc2)CC1', 'Blood', 'inhibition at 1.3 µM', '%', 30.4),
  ('CCN1CCN(S(=O)(=O)c2ccc(OC)c(S(=O)(=O)N3CCN(CC)CC3)c2)CC1', 'Blood', 'inhibition at 1.3 µM', '%', 24.3),
  ('CCOc1ccc(S(=O)(=O)N2CCN(c3ccccc3OC)CC2)cc1S(=O)(=O)N1CCN(c2ccccc2OC)CC1', 'Blood', 'inhibition at 1.3 µM', '%', 25.5),
  ('COc1ccc(S(=O)(=O)N2CCN(c3ccccc3)CC2)cc1S(=O)(=O)N1CCN(c2ccccc2)CC1', 'Blood', 'inhibition at 1.3 µM', '%', 27.9),
  ('CCOc1ccc(S(=O)(=O)N2CCN(c3ccccc3F)CC2)cc1S(=O)(=O)N1CCN(c2ccccc2F)CC1', 'Blood', 'inhibition at 1.3 µM', '%', 21),
  ('CCOc1ccc(S(=O)(=O)N2CCN(C(C)C)CC2)cc1S(=O)(=O)N1CCN(C(C)C)CC1', 'Blood', 'inhibition at 1.3 µM', '%', 36.4),
  ('COc1ccc(C(=O)NCc2cccnc2)cc1C(=O)NCc1cccnc1 [PICOTAMIDE]', 'Blood', 'inhibition at 1.3 µM', '%', 45.5),
  ('CCOc1ccc(S(=O)(=O)N2CCN(Cc3ccccc3)CC2)cc1S(=O)(=O)N1CCN(Cc2ccccc2)CC1', 'Blood', 'inhibition at 1.3 µM', '%', 24),
  ('CCOc1ccc(S(=O)(=O)N2CCN(CC)CC2)cc1S(=O)(=O)N1CCN(CC)CC1', 'Blood', 'inhibition at 1.3 µM', '%', 28.8),
  ('CC(=O)Oc1ccccc1C(=O)O', 'Blood', 'inhibition at 1.3 µM', '%', 46.3),
  ('COc1ccccc1N1CCN(S(=O)(=O)c2ccc(OC)c(S(=O)(=O)N3CCN(c4ccccc4OC)CC3)c2)CC1', 'Blood', 'inhibition at 1.3 µM', '%', 28.7),
  ('CCOc1ccc(S(=O)(=O)N2CCN(c3ccccc3)CC2)cc1S(=O)(=O)N1CCN(c2ccccc2)CC1', 'Blood', 'inhibition at 1.3 µM', '%', 40.1);
